Test system: T-47D spheroids with HUVEC/MSC, viability
Assay: Anticancer human tumor T-47D cell line growth inhibition [PI3K]
Conditions: second compound 0.0316 µM; first compound 0.03 µM; hits give low values
metric: viability, T/C

Cn1cnc2c(F)c(Nc3ccc(Br)cc3Cl)c(C(=O)NOCCO)cc21 + CC(Nc1ncnc2nc[nH]c12)c1cc2cccc(Cl)c2c(=O)n1-c1ccccc1	93.4%

For record Cn1cnc2c(F)c(Nc3ccc(Br)cc3Cl)c(C(=O)NOCCO)cc21 + Cc1nc(NC(=O)N2CCCC2C(N)=O)sc1-c1ccnc(C(C)(C)C(F)(F)F)c1 the listed viability, T/C is 93.1%

For record Cn1cnc2c(F)c(Nc3ccc(Br)cc3Cl)c(C(=O)NOCCO)cc21 + COc1c(OCCCN2CCOCC2)ccc2c3n(c(=NC(=O)c4cnc(N)nc4)nc12)CCN3 the listed viability, T/C is 51.7%

For record Cn1cnc2c(F)c(Nc3ccc(Br)cc3Cl)c(C(=O)NOCCO)cc21 + CC(Nc1ccc2c(c1)OCCn1cc(N3C(=O)OCC3C(F)F)nc1-2)C(N)=O the listed viability, T/C is 80.5%

---

System: T-47D spheroids with HUVEC/MSC, viability
Assay: Anticancer human tumor T-47D cell line growth inhibition [PI3K];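 also: spheroids exposed to agents for seven days before reading; percent of DMSO vehicle control luminescence so 100% = untreated growth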
Settings: second compound 0.1 µM; first compound 0.01 µM; hits give low values
Criterion: viability, T/C strictly less than 70%. Met: label 1. Not met: label 0.

CCN1CCN(Cc2ccc(Nc3ncc(F)c(-c4cc(F)c5nc(C)n(C(C)C)c5c4)n3)nc2)CC1 + CC(Nc1ncnc2nc[nH]c12)c1cc2cccc(Cl)c2c(=O)n1-c1ccccc1	label 0
CC(=O)c1c(C)c2cnc(Nc3ccc(N4CCNCC4)cn3)nc2n(C2CCCC2)c1=O + CC(Nc1ccc2c(c1)OCCn1cc(N3C(=O)OCC3C(F)F)nc1-2)C(N)=O	label 1

Data request: Please determine if CC(C)n1nc(-c2ccc3oc(N)nc3c2)c2c(N)ncnc21 + Cc1nc(NC(=O)N2CCCC2C(N)=O)sc1-c1ccnc(C(C)(C)C(F)(F)F)c1 is below 70% in terms of viability, T/C.
Data returned: label 0

Data request: Please determine if Cn1ncnc1[C@H]1c2n[nH]c(=O)c3cc(F)cc(c23)N[C@@H]1c1ccc(F)cc1 + Cc1nc(NC(=O)N2CCCC2C(N)=O)sc1-c1ccnc(C(C)(C)C(F)(F)F)c1 is below 70% in terms of viability, T/C.
Data returned: label 0

---

Tested on: T-47D spheroids with HUVEC/MSC, viability
Assay: Anticancer human tumor T-47D cell line growth inhibition [PI3K];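 also: spheroids exposed to agents for seven days before reading; percent of DMSO vehicle control luminescence so 100% = untreated growth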
Details: second compound 0.1 µM; first compound 0.1 µM; hits give low values
metric: viability, T/C (%)
Response body: numeric value in %, unit text excluded.

CCN1CCN(Cc2ccc(Nc3ncc(F)c(-c4cc(F)c5nc(C)n(C(C)C)c5c4)n3)nc2)CC1 + CC(Nc1ccc2c(c1)OCCn1cc(N3C(=O)OCC3C(F)F)nc1-2)C(N)=O	58.9

Lab note: compound C#Cc1c(F)ccc2cc(O)cc(-c3ncc4c(N5CC6CCC(C5)N6)nc(OCC56CCCN5CC(F)C6)nc4c3F)c12 (stereo not given) + COc1c(OCCCN2CCOCC2)ccc2c3n(c(=NC(=O)c4cnc(N)nc4)nc12)CCN3 tested on T-47D spheroids with HUVEC/MSC, viability; recorded viability, T/C was 46.4

Lab note: compound Cn1ncc(Cl)c1-c1cc(C(=O)NC(CN)Cc2cccc(F)c2)sc1Cl (stereo not given) + Cc1nc(NC(=O)N2CCCC2C(N)=O)sc1-c1ccnc(C(C)(C)C(F)(F)F)c1 tested on T-47D spheroids with HUVEC/MSC, viability; recorded viability, T/C was 93.2

Lab note: compound CC(C)n1nc(-c2ccc3oc(N)nc3c2)c2c(N)ncnc21 + CC(Nc1ncnc2nc[nH]c12)c1cc2cccc(Cl)c2c(=O)n1-c1ccccc1 tested on T-47D spheroids with HUVEC/MSC, viability; recorded viability, T/C was 44.6

Lab note: compound C[C@@H](NC(=O)c1ncnc(N)c1Cl)c1ncc(C(=O)Nc2cc(C(F)(F)F)c(Cl)cn2)s1 + COc1c(OCCCN2CCOCC2)ccc2c3n(c(=NC(=O)c4cnc(N)nc4)nc12)CCN3 tested on T-47D spheroids with HUVEC/MSC, viability; recorded viability, T/C was 32.9

---

Each entry below carries its reported viability, T/C.
System: T-47D spheroids with HUVEC/MSC, viability
Test: Anticancer human tumor T-47D cell line growth inhibition [PI3K];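 also: spheroids exposed to agents for seven days before reading; percent of DMSO vehicle control luminescence so 100% = untreated growth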
Conditions: second compound 0.00316 µM; first compound 0.0316 µM; hits give low values
Text: Combinatorial screen of targeted agents with the PI3K inhibitors inavolisib, alpelisib, duvelisib, and copanlisib in multi-cell type tumor spheroids A high-throughput screen of multi-cell type tumor spheroids was designed to identify active combinations of targeted small molecules and PI3K pathway inhibitors. […] Compounds. […] If the clinical Cmax for an agent had not been determined, the highest concentration tested was 10 microM. […]
Response body: numeric value in %, unit text excluded.

Worked set:
CC(C)NCC(C(=O)N1CCN(c2ncnc3c2C(C)CC3O)CC1)c1ccc(Cl)cc1 (stereo unspecified) + CC(Nc1ccc2c(c1)OCCn1cc(N3C(=O)OCC3C(F)F)nc1-2)C(N)=O	109
C[C@@H](NC(=O)c1ncnc(N)c1Cl)c1ncc(C(=O)Nc2cc(C(F)(F)F)c(Cl)cn2)s1 + COc1c(OCCCN2CCOCC2)ccc2c3n(c(=NC(=O)c4cnc(N)nc4)nc12)CCN3	92.7
Cn1ncc(Cl)c1-c1cc(C(=O)NC(CN)Cc2cccc(F)c2)sc1Cl (stereo unspecified) + COc1c(OCCCN2CCOCC2)ccc2c3n(c(=NC(=O)c4cnc(N)nc4)nc12)CCN3	105
CNC(=O)c1ccc(N2C(=S)N(c3ccc(C#N)c(C(F)(F)F)c3)C(=O)C2(C)C)cc1F + COc1c(OCCCN2CCOCC2)ccc2c3n(c(=NC(=O)c4cnc(N)nc4)nc12)CCN3	122
CCN1CCN(Cc2ccc(Nc3ncc(F)c(-c4cc(F)c5nc(C)n(C(C)C)c5c4)n3)nc2)CC1 + COc1c(OCCCN2CCOCC2)ccc2c3n(c(=NC(=O)c4cnc(N)nc4)nc12)CCN3	83.2

For record CC(=O)c1c(C)c2cnc(Nc3ccc(N4CCNCC4)cn3)nc2n(C2CCCC2)c1=O + CC(Nc1ccc2c(c1)OCCn1cc(N3C(=O)OCC3C(F)F)nc1-2)C(N)=O the listed viability, T/C is 64.4

For record C=CC(=O)N1CCN(c2nc(=O)n(-c3c(C)ccnc3C(C)C)c3nc(-c4c(O)cccc4F)c(F)cc23)C(C)C1 (stereo unspecified) + CC(Nc1ccc2c(c1)OCCn1cc(N3C(=O)OCC3C(F)F)nc1-2)C(N)=O the listed viability, T/C is 87.5

For record CC(C)n1nc(-c2ccc3oc(N)nc3c2)c2c(N)ncnc21 + COc1c(OCCCN2CCOCC2)ccc2c3n(c(=NC(=O)c4cnc(N)nc4)nc12)CCN3 the listed viability, T/C is 77.6

For record CC(=O)c1c(C)c2cnc(Nc3ccc(N4CCNCC4)cn3)nc2n(C2CCCC2)c1=O + COc1c(OCCCN2CCOCC2)ccc2c3n(c(=NC(=O)c4cnc(N)nc4)nc12)CCN3 the listed viability, T/C is 80.5

For record CC(C)n1nc(-c2ccc3oc(N)nc3c2)c2c(N)ncnc21 + CC(Nc1ccc2c(c1)OCCn1cc(N3C(=O)OCC3C(F)F)nc1-2)C(N)=O the listed viability, T/C is 88.6

For record CCN1CCN(Cc2ccc(Nc3ncc(F)c(-c4cc(F)c5nc(C)n(C(C)C)c5c4)n3)nc2)CC1 + CC(Nc1ccc2c(c1)OCCn1cc(N3C(=O)OCC3C(F)F)nc1-2)C(N)=O the listed viability, T/C is 91

---

Each entry below carries its reported viability, T/C.
System: T-47D spheroids with HUVEC/MSC, viability
Assay: Anticancer human tumor T-47D cell line growth inhibition [PI3K];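 also: spheroids exposed to agents for seven days before reading; percent of DMSO vehicle control luminescence so 100% = untreated growth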
Conditions: second compound 0.316 µM; first compound 0.0316 µM; hits give low values
Response body: numeric value in %, unit text excluded.

For record Cn1nccc1Nc1nccc(-c2ccn(C(CO)c3ccc(Cl)c(F)c3)c(=O)c2)n1 (stereo unspecified) + CC(Nc1ncnc2nc[nH]c12)c1cc2cccc(Cl)c2c(=O)n1-c1ccccc1 the listed viability, T/C is 80.2

For record CCN1CCN(Cc2ccc(Nc3ncc(F)c(-c4cc(F)c5nc(C)n(C(C)C)c5c4)n3)nc2)CC1 + Cc1nc(NC(=O)N2CCCC2C(N)=O)sc1-c1ccnc(C(C)(C)C(F)(F)F)c1 the listed viability, T/C is 70.2

For record Cn1ncc(Cl)c1-c1cc(C(=O)NC(CN)Cc2cccc(F)c2)sc1Cl (stereo unspecified) + CC(Nc1ncnc2nc[nH]c12)c1cc2cccc(Cl)c2c(=O)n1-c1ccccc1 the listed viability, T/C is 104

For record CC(=O)c1c(C)c2cnc(Nc3ccc(N4CCNCC4)cn3)nc2n(C2CCCC2)c1=O + CC(Nc1ccc2c(c1)OCCn1cc(N3C(=O)OCC3C(F)F)nc1-2)C(N)=O the listed viability, T/C is 43.4

For record CC(C)NCC(C(=O)N1CCN(c2ncnc3c2C(C)CC3O)CC1)c1ccc(Cl)cc1 (stereo unspecified) + CC(Nc1ccc2c(c1)OCCn1cc(N3C(=O)OCC3C(F)F)nc1-2)C(N)=O the listed viability, T/C is 63.2

For record CC(C)n1nc(-c2ccc3oc(N)nc3c2)c2c(N)ncnc21 + CC(Nc1ccc2c(c1)OCCn1cc(N3C(=O)OCC3C(F)F)nc1-2)C(N)=O the listed viability, T/C is 29.9

For record Cn1ncnc1[C@H]1c2n[nH]c(=O)c3cc(F)cc(c23)N[C@@H]1c1ccc(F)cc1 + CC(Nc1ncnc2nc[nH]c12)c1cc2cccc(Cl)c2c(=O)n1-c1ccccc1 the listed viability, T/C is 85.6

For record CC1(C)CCC(Nc2ncc(C(F)(F)F)c(-c3c[nH]c4c(P(C)(C)=O)c(C#N)ccc34)n2)CN1 (stereo unspecified) + CC(Nc1ncnc2nc[nH]c12)c1cc2cccc(Cl)c2c(=O)n1-c1ccccc1 the listed viability, T/C is 60.4

For record C[C@@H](NC(=O)c1ncnc(N)c1Cl)c1ncc(C(=O)Nc2cc(C(F)(F)F)c(Cl)cn2)s1 + COc1c(OCCCN2CCOCC2)ccc2c3n(c(=NC(=O)c4cnc(N)nc4)nc12)CCN3 the listed viability, T/C is 11.7

For record Cn1nccc1Nc1nccc(-c2ccn(C(CO)c3ccc(Cl)c(F)c3)c(=O)c2)n1 (stereo unspecified) + Cc1nc(NC(=O)N2CCCC2C(N)=O)sc1-c1ccnc(C(C)(C)C(F)(F)F)c1 the listed viability, T/C is 86.8

For record CC1(C)CCC(CN2CCN(c3ccc(C(=O)NS(=O)(=O)c4ccc(NCC5CCOCC5)c([N+](=O)[O-])c4)c(Oc4cnc5[nH]ccc5c4)c3)CC2)=C(c2ccc(Cl)cc2)C1 + COc1c(OCCCN2CCOCC2)ccc2c3n(c(=NC(=O)c4cnc(N)nc4)nc12)CCN3 the listed viability, T/C is 15.6
